Test: chemical genetic growth profiling, strain panel (AID 1159580);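 also: tested at 20 µM; growth read once vehicle control cultures reached saturation at 30 °C; lower values mean less growth of the strain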
Conditions: S. cerevisiae deletion strains, growth OD, locus YLR320W, strain mms22
Hit rate of the full screen: of about 5,500 compounds, about 2,000 (36%) were called active. Roughly 18% stayed inconclusive and do not appear here. Rule as the data show it: active = normalized growth mostly below about 0.91 (no sharp cut-off); inconclusive = no clear call, values can overlap the other calls; inactive = mostly above about 0.92. The list shows a part of the results.
Just give me one of these, please: active, inactive

q: Given Oc1cc(O)c2c(c1)O[C@H](c1ccc(O)c(O)c1)[C@@H](O)C2 , state the outcome it received in this test.
a: inactive

* * *

Test: chemical genetic growth profiling, strain panel (AID 1159580);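 also: tested at 20 µM; growth read once vehicle control cultures reached saturation at 30 °C; lower values mean less growth of the strain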
Details: S. cerevisiae deletion strains, growth OD, locus YNL175C, strain NOP13
The campaign covered roughly 5,500 compounds. About 2,000 (36%) were called active. Roughly 18% stayed inconclusive and do not appear here. Cut-off read from the data, not from the text of the source: active = normalized growth mostly below about 0.91 (no sharp cut-off); inconclusive = no clear call, values can overlap the other calls; inactive = mostly above about 0.92. This is one part of the list.
Just give me one of these, please: active, inactive

Answered examples (2):
1) O=C(O)CCCc1ccc(N(CCCl)CCCl)cc1    inactive
2) NS(=O)(=O)c1cc2c(cc1Cl)NC=NS2(=O)=O    inactive

q: Dear colleague, could you share the recorded outcome for O=C1NC(=O)C(c2ccccc2)(c2ccccc2)N1 when you have a moment?
a: inactive

q: What about this molecule? CCCCCCCCCCCCCCCCCC(=O)NCC(COP(=O)([O-])OCC[N+](C)(C)C)OCC (stereo not drawn)
a: active

q: Please give the result for CNC(=O)[C@H]1O[C@@H](n2cnc3c(NCc4cccc(I)c4)ncnc32)C(O)[C@H]1O (stereo partly drawn) too.
a: inactive

q: Please do the same for N[C@H]1CONC1=O as well.
a: inactive

q: Next molecule: CC(C)(Sc1ccc(CCN(CCCCC2CCCCC2)C(=O)NC2CCCCC2)cc1)C(=O)O
a: inactive
